# Test system: MOLT-4
# PROCEDURE_SUMMARY: NCI tumour cell line growth inhibition, 48 h
Active and inactive are the calls of the source. Cut-off read from the data, not from the text of the source: active = GI50 up to about 1.1 µM and inactive = higher.
Choose the fitting class; nothing outside active, inactive is accepted.

The following compounds have reported results that may help.
- COMPOUND: "Cc1c(O)c(=O)ccn1CCO"
  CATEGORY: "inactive"
- COMPOUND: "C=CCN(c1cc(OC)c2[nH]c(C(=O)OCC)c(C)c2c1[N+](=O)[O-])S(C)(=O)=O"
  CATEGORY: "inactive"
- COMPOUND: "O=C1OC2C(O)COC2(O)C1(O)C(C[N+](=O)[O-])c1ccc(Cl)cc1 (configuration not stated)"
  CATEGORY: "inactive"
- COMPOUND: "CCN(CC)/[N+]([O-])=N/OS(=O)(=O)N(C)C"
  CATEGORY: "inactive"
- COMPOUND: "CCOC(=O)c1cccc([N+](=O)[O-])c1N"
  CATEGORY: "inactive"

Status in this test for Nc1ccc(C(=O)c2cn(CCN3CCOCC3)c3ccccc23)c2ccccc12 ?
inactive

Next up: CSc1cc(Cl)c(C)cc1S(=O)(=O)NC(=O)NNc1ccc(C)cc1
inactive

Next up: CCOC(=O)NC(Nc1ccc([N+](=O)[O-])cc1)(C(F)(F)F)C(F)(F)F
inactive

Next up: O=C1CCC(c2ccccc2)(c2ccccc2)CC1
inactive

Next up: CC(C)C(C/C=C1\CC(CO)(COC(=O)C2CCCCC2)OC1=O)C(C)C (configuration not stated)
inactive

Next up: CCOP(=O)(OCC)/C(C#N)=C\c1ccc(OC(C)=O)cc1
inactive

Next up: COc1cc(NCC(C#N)C#N)ccc1/N=N/c1ccc([N+](=O)[O-])cc1
inactive

Next up: Clc1nc(Cl)c(Cc2ccccc2)c(Cl)n1
inactive

Next up: COc1ccc(CNc2cnc3cc(N)ccc3n2)cc1OC
inactive

Next up: N/C(=C\c1ccc(OCc2ccccc2)c(OCc2ccccc2)c1[N+](=O)[O-])C(=O)O
inactive

Next up: O=C1C2C(c3ccccc3)NC(c3ccccc3)C1C(c1ccccc1)NC2c1ccccc1 (configuration not stated)
inactive

Next up: N=c1oc2c(O)c(O)ccc2cc1C(N)=O
inactive

Next up: FC(F)(F)c1ccc2nc(NCc3ccccc3)c(-c3ccccc3)nc2c1
inactive

Next up: CC(=O)Nc1ccc(C(=O)NN2C(=O)C(Cl)C2c2ccc([N+](=O)[O-])cc2)cc1 (configuration not stated)
inactive

Next up: C=C1C(=O)O[C@H]2[C@H]1[C@H](OC(=O)/C(C)=C\C)C[C@]1(CO1)[C@@H]1[C@H](OC(C)=O)C=C(C)[C@]21O [EUPAROTIN ACETATE]
inactive

---

# Tested on: NCI-H522
# PROCEDURE_SUMMARY: NCI tumour cell line growth inhibition, 48 h
Activity calls are given as the source filed them. Rule as the data show it: active = GI50 up to about 1.1 µM and inactive = higher.
Choose the fitting class; nothing outside active, inactive is accepted.

- COMPOUND: "COc1ccc(/C(Cl)=C(\\C=O)c2ccc(Br)cc2)cc1OC"
  CATEGORY: "inactive"
- COMPOUND: "COc1ccc2ccc3oc(=O)c(C)cc3c2c1"
  CATEGORY: "inactive"

Status in this test for O=C(/C=C/c1ccc(O)c(-c2cc(C(=O)/C=C/c3ccc(O)cc3)c(O)cc2O)c1)c1ccc(O)cc1O ?
inactive

Next up: O=C(c1cc(Cl)ccc1Cl)N1CCN(c2ccc(Cl)c(Cl)c2)CC1
inactive

Next up: C[C@H]1[C@H](C)CC[C@]2(C(=O)O)CCC3(COC(=O)/C=C/c4ccc(O)cc4)C(=CCC4[C@@]5(C)CC[C@H](O)C(C)(C)C5CC[C@]43C)[C@H]12 (stereo partly specified)
inactive

Next up: COC(=O)C(NC(=O)c1ccccc1)C(c1ccc(Cl)cc1)P(=O)(OC)OC (stereo unspecified)
inactive

Next up: COC(=O)Nc1nc2cc(NC(=O)c3ccc(I)cc3)ccc2[nH]1
inactive

Next up: COc1ccc(-c2cc(-c3cc(C)cc(Br)c3O)no2)cc1
inactive

Next up: Cc1cc(=O)oc2cc(OCC(O)COC(C)C)ccc12 (stereo unspecified)
inactive

Next up: CC(=O)c1cccc(Nc2nc3ccccc3c3[nH]c4ccccc4c23)c1
inactive

Next up: CCN(CC)CCn1c(=O)c2cccnc2n2c3c(=O)n(C)c(=O)n(C)c3nc12
inactive
